Target: GLP-1 receptor (GLP-1R), primary cAMP assay cell line (human, UniProt P43220 24-463)
Assay: cell-based or functional assay
Starred links: 1 amine or outer side, 2 acyl side, 3 side chain; linkers in the order of their positions; H or OH if unused. Non-standard residues stand in square brackets, D forms with d. Groups on a side chain read outwards from the residue. Primed or numbered codes have the meaning given here. No end group written: not given here. *: point of attachment. γGlu = O=C(O)[C@H](CCC(=O)[*:2])N[*:1]; αMeF = C[C@](N)(Cc1ccccc1)C(=O)O; αMeK = C[C@](N)(CCCCN)C(=O)O; Lauroyl = CCCCCCCCCCCC(=O)*; αMeS = C[C@](N)(CO)C(=O)O; PEG2′ = not defined here; Aib = CC(C)(N)C(=O)O
readout: cAMP Primary assay EC50, Mean pM GLP-1R (pM)

H[Aib]EGS[αMeF]TSDV[αMeS]SYK([PEG2′-PEG2′-γGlu-Lauroyl])EGEK([PEG2′-PEG2′-γGlu-Lauroyl])A[αMeK]EFIAK([PEG2′-PEG2′-γGlu-Lauroyl])VVEGG-NH2 [SEQ ID NO: 469]: 45.4
H[Aib]EGS[αMeF]TSDK([PEG2′-PEG2′-γGlu-Lauroyl])SSYLEGEK([PEG2′-PEG2′-γGlu-Lauroyl])A[αMeK]EFIAK([PEG2′-PEG2′-γGlu-Lauroyl])VVEGG-NH2 [SEQ ID NO: 457]: 142

[I] H[Aib]EGS[αMeF]TSDK([PEG2′-PEG2′-γGlu-Lauroyl])SSYLEGEAA[αMeK]K([PEG2′-PEG2′-γGlu-Lauroyl])FIAFK([PEG2′-PEG2′-γGlu-Lauroyl])VEGG-NH2 [SEQ ID NO: 474]
[II] H[Aib]EGS[αMeF]TSDVSK([PEG2′-PEG2′-γGlu-Lauroyl])YLEK([PEG2′-PEG2′-γGlu-Lauroyl])EAA[αMeK]EFIAK([PEG2′-PEG2′-γGlu-Lauroyl])VVEGG-NH2 [SEQ ID NO: 459]
Prompt: Hi! Which is lower in terms of cAMP Primary assay EC50, Mean pM GLP-1R, the first one I or the second one II ? Please respond with the label that marks your chosen entry.
Response: II
(II: 100 pM, I: 290 pM)
